# key: entry, value: melting point

Consider the worked cases shown below.
CC(C)(C)c1cc(CCc2ccccc2NC(=O)NC2CCCc3ccccc32)cc(C(C)(C)C)c1O (stereo not drawn) | 168 to 169 °C
CC(=O)OCC1CCc2cc3ccccc3n2CC1 (stereo not drawn) | 77 to 79 °C

Next up:
Give the measured melting point of O=C(O)C1C2CNCC21 (stereo not drawn) .
101 to 102 °C

###

endpoint.name: melting point

// worked examples, melting point included
Cn1c(CC#N)ccc1C(=O)c1cccs1 | 132 to 133 °C
Cn1cc(C2CCN(CCCCNC(=O)c3ccc(-c4ccc(C(F)(F)F)cc4)cc3)CC2)c2ccccc21 | 205 to 206 °C
CC(c1oc2ccccc2c(=O)c1-c1ccccc1F)n1cnc2c(N)ncnc21 (stereo unspecified) | 247 to 250 °C

So what's the measured melting point for this one? OC(CCN1CC=C(c2ccccc2)CC1)c1ccc(CCc2ccc(Cl)cc2)cc1 (stereo unspecified)
158 to 160 °C

What melting point value was documented for this compound, COC(=O)C1=C(C)NC(C)=C(C(=O)OC)C1C ?
155 to 156 °C

Give the measured melting point of N#CCc1ccc(-c2cn3ccccc3n2)cc1 .
175 to 177 °C

###

molecules and their reported melting point

CCc1ccc(C(=O)O)c([N+](=O)[O-])c1 | 111 °C
CSc1nc(O)nc(-c2ccncc2)n1 | 270 to 272 °C
CCOC(=NS(=O)(=O)c1ccccc1)N1Cc2ccccc2-c2ccccc2C1 | 146 to 150 °C
CCCCCCCNC(=O)N(C)c1cccc(-c2ccc(CCC(=O)O)cc2OC)c1 | 100 to 101 °C
Cc1nc(-c2ccc(N3CCOCC3)c([N+](=O)[O-])c2)sc1C(=O)O | 218 to 220 °C

Which measured melting point value corresponds to Cc1oc(C=Cc2ccccc2Cl)nc1CC#N ?
89 to 90 °C

###

The entries below come with measured melting point values attached.

Would you please look over these solved cases?
NCC1=CC(c2ccccc2)Cc2c(O)cccc21 (centres undefined) | 102 to 104 °C
CCCCCCCCCNC(=O)CCCC | 29 to 31 °C
Oc1ccc2cc(OCC(O)CCc3cccnc3)ccc2c1 (centres undefined) | 165 to 166 °C

So what does the record say about melting point for CC(c1ccc(S(C)(=O)=O)cn1)C(O)(Cn1cncn1)c1ccc(F)cc1F (centres undefined) ?
176 to 177 °C

Consider the molecule O=C(CN1CCN(c2ccncc2)CC1)c1ccc(CC(O)=S)cc1 and give its measured melting point.
240 to 244 °C

Form field: reported melting point of O=c1[nH]nc2n1C=Cc1ccccc1C2c1ccccc1 (centres undefined)
258 to 260 °C

What does the record list as melting point for Cc1cccc(-c2n[nH]cc2-c2ccnc(-c3ccc(C#N)cc3)c2)n1 ?
198 °C

Look up melting point for this molecule: Nc1ncnc2[nH]c(=O)sc12
> 370 °C

Record request: melting point value, item CCn1cc(C(=O)O)c(=O)c2cnc(N3CCN(c4ccccc4)CC3)nc21
247 to 248 °C

###

Form field: melting point (one value per entry).

Observe how each entry below is paired with its result.
O=C(C1CCC1)N1CCSCC1 | 39 to 40 °C
O=C(CCN1CCN(c2ccccc2)CC1)Nc1ccc(O)cc1 | 172 to 174 °C

Data request, read-out melting point, for OOC12C=CC=CC=CC=CC=CC1=CC=CO2 (stereo unspecified)
104 to 106 °C

# get_value(readout='melting point', item= Cc1ccc(Oc2ccc(C(=O)c3ccc(Oc4ccc(C)c(C)c4)cc3)cc2)cc1C )
68 to 69 °C

# query: melting point of entry CC1=C(C(=O)OC(C)C)C(c2cccc(Cl)c2)N(C(=O)Oc2ccc([N+](=O)[O-])cc2)CN1 (stereo unspecified)
165 to 167 °C

Bench note: what melting point did CCCSc1ncc(CO)n1Cc1ccccc1Cl show?
98 to 101 °C
